Listed here are molecules together with their documented pIC50.
- Test system: SK-MEL-28
- assay text: Cytotoxicity was measured against neoplastic cultured MEL-28 cells of malign human melanoma.
- Format: functional, cell-based
The value called pIC50 is obtained by taking minus log10 of the concentration in mol/L.

{"columns": ["molecule", "measurement target", "pIC50"],
 "data": [
  ["CC(=O)Oc1cc(C)c(OC(C)=O)c2c1CC=C(CCC=C(C)C)C2", "SK-MEL-28", 4.84]
]}

Find the recorded pIC50 belonging to O=C1C=CC(=O)C=C1 [BENZOQUINONE] and report it. 4.34

Consider the molecule CC1=CCC[C@H]2[C@](C)(CC3=CC(=O)C=CC3=O)[C@@H](C)CC[C@]12C [AVARONE] and give its measured pIC50. 5.22

Recorded pIC50 for CC1=CCC[C@H]2[C@](C)(Cc3cc(O)ccc3O)[C@@H](C)CC[C@]12C [AVAROL] , please? 5.22

Suppose we examine the molecule CC(=O)Oc1ccc(OC(C)=O)c2c1CC=C(CCC=C(C)C)C2 ; what pIC50 value has been reported? 5.44

I would be grateful if you could share the reported pIC50 for CC(C)=CCCc1ccc2c(c1)C(=O)C(C)=CC2=O . 5.01

Look up pIC50 for this molecule: CC(C)=CCCc1ccc2c(c1)C(=O)C=CC2=O 6.40

# input molecule: CC(=O)Oc1cc(C)c(OC(C)=O)c2cc(CCC=C(C)C)ccc12 ; wanted: its pIC50 5.46

// lookup pIC50 for CC(C)=CCCC1=CCc2c(O)cc(C)c(O)c2C1 4.71

I have this molecule here, CC(C)=CCCC1=CCc2c(O)ccc(O)c2C1 , and I need its recorded pIC50. 5.31

Could you share which pIC50 value was measured for CC(C)=CCCC1=CCC2=C(C1)C(=O)C=CC2=O ? 5.68

I have this molecule here, CC(C)=CCCC1=CCC2=C(C1)C(=O)C(C)=CC2=O , and I need its recorded pIC50. 5.01

###

The following molecules are listed with their measured IC50 values.
- Tested on: SK-MEL-28
- assay text: Cytotoxicity was measured against neoplastic cultured MEL-28 cells of malign human melanoma.
- Format: functional, cell-based

Reference set, count: 2
{"columns": ["molecule", "IC50"],
 "data": [
  ["CC(C)=CCCC1=CCC2=C(C1)C(=O)c1ccccc1C2=O", "> 34 µM"],
  ["CC(C)=CCCC1=CCC2C(=O)c3ccccc3C(=O)C2C1 (stereo not drawn)", "> 34 µM"]
]}

Now examine the next entry.
Quick check: IC50 on SK-MEL-28, item O=C1C=CC(=O)c2ccccc21 ? > 63.2 µM
